Source listed as ChEMBL document CHEMBL1122317.

Method Summary: Spectral dissociation constant of the compound.
Assay type: ADME
Run Parameters: read-out: Ks
Metric Name: Kd (µM)
Dear colleague, please return just the value in µM, with no unit written.

Reference set, count: 2
Ask | Give me measured Kd, please, for this compound: CCCCCCCCOc1ccc2c3c1OC1C(O)C=CC4C(C2)N(C)CCC341.Cl (stereo not drawn)
Reply | 8.8

Ask | Give me measured Kd, please, for this compound: CCCCCCOc1ccc2c3c1OC1C(O)C=CC4C(C2)N(C)CCC341.Cl (stereo not drawn)
Reply | 12.8

Now let's try a different one.
Ask | Give me measured Kd, please, for this compound: CCCCCCCCCOc1ccc2c3c1OC1C(O)C=CC4C(C2)N(C)CCC341.Cl (stereo not drawn)
Reply | 7.6
